Property: kon; scope: individual binders
target-of-assay: T1, Recombinant Human TNF-α/TNFSF1A (human, UniProt P01375 77-233)
T1 construct: Bought reagent (R&D Systems 210-TA); also called hTNF-α; huTNF-α
T1 sequence (P01375 77-233 limits assumed): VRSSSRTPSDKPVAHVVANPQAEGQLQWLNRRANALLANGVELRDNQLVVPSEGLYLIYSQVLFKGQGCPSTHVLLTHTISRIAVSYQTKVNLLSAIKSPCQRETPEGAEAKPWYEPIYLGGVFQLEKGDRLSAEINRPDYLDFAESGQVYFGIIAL
method-description: SPR (Biacore), antibody captured, TNF-α in solution
Remember to quote the unit after the number.

What value of kon has been reported for the following binder? AB245 (antibody, V domains shown, also called hMAK195VH.1a / hMAK195VL.1a) VH: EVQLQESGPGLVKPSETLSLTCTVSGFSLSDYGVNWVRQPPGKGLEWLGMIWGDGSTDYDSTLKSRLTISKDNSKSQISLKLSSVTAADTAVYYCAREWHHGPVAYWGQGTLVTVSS VL: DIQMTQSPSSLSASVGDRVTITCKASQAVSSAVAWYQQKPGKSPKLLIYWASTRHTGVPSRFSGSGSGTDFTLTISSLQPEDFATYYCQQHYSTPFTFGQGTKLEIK
3.32e+06 M⁻¹ s⁻¹

Next:
kon for AB256 (antibody, V domains shown, also called hMAK195VH.2a / hMAK195VL.1) VH: EVQLVESGGGLVQPGGSLRLSCAVSGFTLSDYGVNWVRQAPGKGLEWLGMIWGDGSTDYDSTLKSRLTISKDNSKSTIYLQMNSLRAEDTAVYYCAREWHHGPVAYWGQGTLVTVSS VL: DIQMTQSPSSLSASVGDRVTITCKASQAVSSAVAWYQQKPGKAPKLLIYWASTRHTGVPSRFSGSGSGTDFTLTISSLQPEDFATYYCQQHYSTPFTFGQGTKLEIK ?
3.54e+06 M⁻¹ s⁻¹

Again, but for AB240 (antibody, V domains shown, also called hMAK195VH.1 / hMAK195VL.1) VH: EVQLQESGPGLVKPSETLSLTCTVSGGSISDYGVNWIRQPPGKGLEWIGMIWGDGSTDYDSTLKSRVTISVDTSKNQFSLKLSSVTAADTAVYYCAREWHHGPVAYWGQGTLVTVSS VL: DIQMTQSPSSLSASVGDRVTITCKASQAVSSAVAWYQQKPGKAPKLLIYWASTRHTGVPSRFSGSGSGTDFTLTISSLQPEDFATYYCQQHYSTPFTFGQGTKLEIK
1.64e+06 M⁻¹ s⁻¹
